These entries and their values trace back to patent US20080227823A1.

Target: human α1H T-type channels (Homo sapiens, UniProt O95180)
Construct: expressed in transfected cells; host or cells: HEK 293
Sequence (O95180 whole entry): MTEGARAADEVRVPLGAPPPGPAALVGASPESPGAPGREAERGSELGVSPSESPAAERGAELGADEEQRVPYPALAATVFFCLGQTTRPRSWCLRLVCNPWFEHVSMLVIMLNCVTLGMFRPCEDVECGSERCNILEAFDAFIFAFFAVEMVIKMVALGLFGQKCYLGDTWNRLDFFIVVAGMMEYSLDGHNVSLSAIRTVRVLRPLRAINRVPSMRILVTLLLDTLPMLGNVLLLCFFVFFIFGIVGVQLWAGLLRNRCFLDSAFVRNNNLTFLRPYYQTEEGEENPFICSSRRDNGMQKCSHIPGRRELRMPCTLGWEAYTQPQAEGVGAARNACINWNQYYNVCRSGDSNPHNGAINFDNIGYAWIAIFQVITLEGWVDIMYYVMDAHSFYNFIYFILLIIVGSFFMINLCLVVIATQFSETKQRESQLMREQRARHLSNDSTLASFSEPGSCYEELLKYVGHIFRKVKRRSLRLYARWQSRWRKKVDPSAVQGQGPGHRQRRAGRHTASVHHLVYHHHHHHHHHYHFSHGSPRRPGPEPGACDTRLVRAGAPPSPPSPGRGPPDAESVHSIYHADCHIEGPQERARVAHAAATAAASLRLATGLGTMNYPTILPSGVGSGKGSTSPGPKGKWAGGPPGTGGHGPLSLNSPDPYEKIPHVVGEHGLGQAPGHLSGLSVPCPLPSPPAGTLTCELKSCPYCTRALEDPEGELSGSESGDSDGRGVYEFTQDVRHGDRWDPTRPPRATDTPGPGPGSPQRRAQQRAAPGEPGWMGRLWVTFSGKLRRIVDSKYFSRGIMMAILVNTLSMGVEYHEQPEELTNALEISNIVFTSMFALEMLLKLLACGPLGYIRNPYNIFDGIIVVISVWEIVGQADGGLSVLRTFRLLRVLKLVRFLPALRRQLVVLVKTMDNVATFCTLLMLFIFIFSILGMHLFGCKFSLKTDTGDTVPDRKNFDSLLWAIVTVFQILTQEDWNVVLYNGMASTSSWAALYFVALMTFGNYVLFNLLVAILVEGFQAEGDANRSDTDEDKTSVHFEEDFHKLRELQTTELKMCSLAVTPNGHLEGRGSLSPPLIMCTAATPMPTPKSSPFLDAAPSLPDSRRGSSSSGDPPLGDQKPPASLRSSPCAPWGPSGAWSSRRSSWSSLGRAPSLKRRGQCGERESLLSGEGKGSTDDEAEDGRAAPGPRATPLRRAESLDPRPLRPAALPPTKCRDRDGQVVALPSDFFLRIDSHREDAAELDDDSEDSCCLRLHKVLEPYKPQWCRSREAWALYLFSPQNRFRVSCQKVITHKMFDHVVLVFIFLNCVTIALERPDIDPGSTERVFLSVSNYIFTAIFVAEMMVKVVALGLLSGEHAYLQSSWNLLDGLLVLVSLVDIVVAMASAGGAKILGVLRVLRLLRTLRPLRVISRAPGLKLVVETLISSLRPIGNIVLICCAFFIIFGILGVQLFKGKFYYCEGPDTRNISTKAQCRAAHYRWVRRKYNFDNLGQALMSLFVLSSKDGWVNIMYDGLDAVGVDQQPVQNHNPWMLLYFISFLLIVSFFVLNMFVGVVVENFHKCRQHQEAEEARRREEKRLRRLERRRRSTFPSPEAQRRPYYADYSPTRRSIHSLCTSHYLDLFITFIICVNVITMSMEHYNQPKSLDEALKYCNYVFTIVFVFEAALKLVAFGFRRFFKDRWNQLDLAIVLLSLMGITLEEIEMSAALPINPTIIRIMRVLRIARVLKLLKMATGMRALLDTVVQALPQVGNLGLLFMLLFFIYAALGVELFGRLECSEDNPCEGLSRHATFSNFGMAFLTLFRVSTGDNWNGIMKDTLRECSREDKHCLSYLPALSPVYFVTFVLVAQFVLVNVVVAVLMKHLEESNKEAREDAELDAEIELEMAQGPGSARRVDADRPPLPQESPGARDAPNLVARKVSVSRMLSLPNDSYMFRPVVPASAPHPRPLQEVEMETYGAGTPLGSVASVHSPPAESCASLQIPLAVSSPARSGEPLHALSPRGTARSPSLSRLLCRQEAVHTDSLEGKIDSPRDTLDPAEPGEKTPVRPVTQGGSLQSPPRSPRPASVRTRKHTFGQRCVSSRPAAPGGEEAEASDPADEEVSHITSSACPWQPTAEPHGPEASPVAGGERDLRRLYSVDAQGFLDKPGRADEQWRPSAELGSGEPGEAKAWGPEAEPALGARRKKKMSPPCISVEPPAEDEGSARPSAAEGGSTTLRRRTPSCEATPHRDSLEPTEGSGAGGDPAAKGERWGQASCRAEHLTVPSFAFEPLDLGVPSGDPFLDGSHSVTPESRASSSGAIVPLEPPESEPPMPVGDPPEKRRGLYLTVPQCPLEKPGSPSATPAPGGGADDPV
Assay: T-type calcium channel block, whole cell patch clamp in HEK cells
Format: cell-based
Settings: measured at 200 nM drug, mainly non-inactivated protocol
metric: pKd
// field semantics: pKd = negative decimal log of concentration (mol/L)

Input line: Could you tell me which pKd is on file for O=C(/C=C/c1ccc(F)c(Br)c1)N[C@@H](C(=O)NCCc1c[nH]c2ccc(F)cc12)c1ccccc1 ?
Output line: 6.16

###

Target: human α1G T-type channels (Homo sapiens)
Construct: expressed in transfected cells; host or cells: HEK 293
Sequence (O43497 whole entry): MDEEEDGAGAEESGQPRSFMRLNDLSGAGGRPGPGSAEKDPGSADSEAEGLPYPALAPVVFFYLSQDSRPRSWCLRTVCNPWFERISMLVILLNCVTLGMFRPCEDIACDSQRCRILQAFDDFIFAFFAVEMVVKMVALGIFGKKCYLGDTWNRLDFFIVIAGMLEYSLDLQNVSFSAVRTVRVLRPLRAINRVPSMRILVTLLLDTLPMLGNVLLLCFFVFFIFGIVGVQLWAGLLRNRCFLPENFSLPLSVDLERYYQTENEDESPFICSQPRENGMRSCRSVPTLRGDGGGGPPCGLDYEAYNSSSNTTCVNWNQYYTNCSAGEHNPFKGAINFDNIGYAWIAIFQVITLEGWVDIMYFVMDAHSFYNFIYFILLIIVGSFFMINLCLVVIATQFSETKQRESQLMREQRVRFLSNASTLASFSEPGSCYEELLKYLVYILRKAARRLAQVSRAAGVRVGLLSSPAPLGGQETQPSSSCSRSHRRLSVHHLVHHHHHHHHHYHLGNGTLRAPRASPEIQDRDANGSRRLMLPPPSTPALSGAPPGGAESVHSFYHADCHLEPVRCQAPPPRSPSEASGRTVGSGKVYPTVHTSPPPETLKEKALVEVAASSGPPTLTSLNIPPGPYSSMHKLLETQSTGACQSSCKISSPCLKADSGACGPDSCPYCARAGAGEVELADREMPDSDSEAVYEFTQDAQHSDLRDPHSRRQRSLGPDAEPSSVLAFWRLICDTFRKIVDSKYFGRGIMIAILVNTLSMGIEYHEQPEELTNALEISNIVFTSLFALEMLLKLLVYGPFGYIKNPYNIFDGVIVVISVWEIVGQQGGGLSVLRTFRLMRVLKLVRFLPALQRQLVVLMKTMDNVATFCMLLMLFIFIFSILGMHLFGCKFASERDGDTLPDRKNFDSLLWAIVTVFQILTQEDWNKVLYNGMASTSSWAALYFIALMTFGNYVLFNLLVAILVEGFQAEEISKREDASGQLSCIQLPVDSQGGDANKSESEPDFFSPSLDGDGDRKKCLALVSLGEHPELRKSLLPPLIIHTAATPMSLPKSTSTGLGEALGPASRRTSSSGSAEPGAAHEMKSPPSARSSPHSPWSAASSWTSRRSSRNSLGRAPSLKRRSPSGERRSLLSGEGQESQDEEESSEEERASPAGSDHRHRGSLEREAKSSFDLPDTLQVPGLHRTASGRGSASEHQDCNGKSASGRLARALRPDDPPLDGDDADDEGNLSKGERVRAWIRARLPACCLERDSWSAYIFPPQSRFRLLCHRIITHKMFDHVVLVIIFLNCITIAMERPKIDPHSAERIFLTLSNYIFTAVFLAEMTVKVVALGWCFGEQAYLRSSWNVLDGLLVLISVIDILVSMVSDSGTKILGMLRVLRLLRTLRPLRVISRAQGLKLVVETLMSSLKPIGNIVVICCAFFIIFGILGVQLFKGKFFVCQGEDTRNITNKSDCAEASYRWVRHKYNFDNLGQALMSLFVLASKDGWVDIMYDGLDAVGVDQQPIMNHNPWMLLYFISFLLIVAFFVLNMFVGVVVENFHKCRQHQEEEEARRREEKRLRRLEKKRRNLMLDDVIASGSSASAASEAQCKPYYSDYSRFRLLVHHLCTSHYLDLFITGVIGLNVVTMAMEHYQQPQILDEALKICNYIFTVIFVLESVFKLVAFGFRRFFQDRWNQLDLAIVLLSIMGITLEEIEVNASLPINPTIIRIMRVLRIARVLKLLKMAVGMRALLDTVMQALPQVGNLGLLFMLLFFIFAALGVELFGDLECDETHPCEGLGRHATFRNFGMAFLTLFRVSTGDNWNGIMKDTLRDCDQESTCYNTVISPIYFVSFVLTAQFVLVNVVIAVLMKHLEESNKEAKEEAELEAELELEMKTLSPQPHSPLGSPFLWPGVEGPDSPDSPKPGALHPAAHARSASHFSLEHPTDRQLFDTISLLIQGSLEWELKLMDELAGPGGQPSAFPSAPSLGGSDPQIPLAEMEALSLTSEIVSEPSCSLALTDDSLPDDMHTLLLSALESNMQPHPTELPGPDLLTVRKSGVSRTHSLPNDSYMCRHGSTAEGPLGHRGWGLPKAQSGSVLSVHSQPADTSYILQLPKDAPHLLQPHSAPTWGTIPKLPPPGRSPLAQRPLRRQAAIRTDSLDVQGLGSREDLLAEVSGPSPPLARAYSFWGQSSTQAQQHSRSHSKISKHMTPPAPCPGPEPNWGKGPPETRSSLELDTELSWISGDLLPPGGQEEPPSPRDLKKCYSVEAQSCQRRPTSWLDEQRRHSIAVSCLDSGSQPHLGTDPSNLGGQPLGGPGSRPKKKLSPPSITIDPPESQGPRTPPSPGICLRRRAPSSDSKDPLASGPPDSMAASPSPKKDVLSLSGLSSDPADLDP
Assay: T-type calcium channel block, whole cell patch clamp in HEK cells
Assay type: cell-based
Conditions: measured at 1 μM drug, mainly non-inactivated protocol
metric: Kd (nM)
Just the number please, in nM, no unit attached.

Past entries and their recorded results:
Input line: Could you tell me which Kd is on file for O=C(/C=C/c1ccc(F)cc1)NC1(C(=O)Nc2cc(C(F)(F)F)cc(C(F)(F)F)c2)CCC(O)CC1 (stereo not drawn) [Compound 56] ?
Output line: 1060

Input line: Could you tell me which Kd is on file for COC(=O)N1CCC(NC(=O)/C=C/c2ccc(F)c(Br)c2)(C(=O)NCCc2c[nH]c3ccc(F)cc23)CC1 [Compound 23] ?
Output line: 790

Continue with the next molecule.
Input line: Could you tell me which Kd is on file for CN(CCc1c[nH]c2ccc(F)cc12)C(=O)C1(NC(=O)/C=C/c2ccc(F)cc2)CCN(C(=O)CN)CC1 [Compound 67] ?
Output line: 1020

###

Biological target: human α1G T-type channels (Homo sapiens)
Construct: expressed in transfected cells; host or cells: HEK 293
Experiment: T-type calcium channel block, whole cell patch clamp in HEK cells
Format: cell-based
Settings: measured at 1 μM drug, mainly non-inactivated protocol
# Kd values compiled below
Just the number please, in nM, no unit attached.

Past entries and their recorded results:
Input line: Could you tell me which Kd is on file for O=C(/C=C/c1ccc(F)cc1)NC1(C(=O)Nc2cc(Cl)cc(Cl)c2)CCNCC1 ?
Output line: 320

Input line: Could you tell me which Kd is on file for O=C(/C=C/c1ccc(F)c(F)c1)NC1(C(=O)Nc2ccccc2)CCNCC1 ?
Output line: 3290

Next:
Input line: Could you tell me which Kd is on file for O=C(/C=C/c1ccc(F)c(Br)c1)NC1(C(=O)NCCc2c[nH]c3ccc(F)cc23)CCOCC1 ?
Output line: 430
